biological target: human orexin receptor 1 (Homo sapiens (Human), UniProt O43613); experiment: Orexin antagonist activity, intracellular calcium FLIPR assay, RBL-2H3 cells expressing human orexin receptor 1; settings: RBL-2H3 cells stably expressing human orexin receptor 1; orexin-A at approx. 80% maximal response; compound added 15 minutes before; read-out: Human Orexin1R IC50
Sequence (O43613 whole entry): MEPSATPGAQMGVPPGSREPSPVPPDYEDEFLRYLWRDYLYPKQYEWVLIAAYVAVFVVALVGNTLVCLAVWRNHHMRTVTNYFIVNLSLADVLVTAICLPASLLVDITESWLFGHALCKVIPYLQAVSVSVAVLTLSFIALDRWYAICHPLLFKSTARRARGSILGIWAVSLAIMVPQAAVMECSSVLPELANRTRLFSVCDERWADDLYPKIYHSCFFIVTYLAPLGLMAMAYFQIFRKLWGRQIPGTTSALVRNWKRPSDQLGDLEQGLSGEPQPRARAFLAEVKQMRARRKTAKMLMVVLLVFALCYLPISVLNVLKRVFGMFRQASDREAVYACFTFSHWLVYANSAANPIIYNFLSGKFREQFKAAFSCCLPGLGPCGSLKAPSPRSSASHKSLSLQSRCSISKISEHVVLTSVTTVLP
pIC50: −log10 of the molar value.
OUTCOME MEASURE: pIC50

Below, each entry is followed by its recorded pIC50 result.
1) CC1(Nc2ccc(OC(F)(F)F)cn2)CCCC1NC(=O)c1ccccc1-n1nccn1 (stereo not shown) [Example 96] ... 7.07
2) Cc1nnc(-c2ccccc2C(=O)N[C@H]2CCC[C@]2(C)Nc2cnc(C(F)(F)F)cn2)o1 [Example 160] ... 7.54
3) C[C@]1(Nc2cnc(C(F)(F)F)cn2)CCC[C@@H]1NC(=O)c1ncccc1-n1cccn1 [Example 85] ... 7.74

1: Cc1cc(C(F)(F)F)cnc1N[C@H]1CCC[C@@H]1NC(=O)c1ncccc1-n1nccn1 [Example 124]
2: O=C(N[C@H]1CCC[C@@H]1Nc1ccc(C(F)(F)F)cn1)c1ccccc1-n1nccn1 [Example 12]
3: O=C(N[C@H]1CCC[C@@H]1Nc1cnc(C(F)(F)F)cn1)c1cc(C(F)(F)F)ccc1-n1nccn1 [Example 45]
4: O=C(NC1CC(F)(F)CC1Nc1ccc(C(F)(F)F)cn1)c1ccccc1-n1nccn1 (single isomer, unassigned) [Example 129]
Prompt line: List these items ordered by pIC50, big to small. Show the ranking through the labels, in the order asked for.
Response line: 1, 2, 3, 4
(1: 7.68, 2: 7.19, 3: 6.62, 4: 6.20)

====

target: human orexin receptor 1 (Homo sapiens (Human), UniProt O43613); experiment: Orexin antagonist activity, intracellular calcium FLIPR assay, RBL-2H3 cells expressing human orexin receptor 1; conditions: RBL-2H3 cells stably expressing human orexin receptor 1; orexin-A at approx. 80% maximal response; compound added 15 minutes before; read-out: Human Orexin1R IC50
pIC50: −log10 of the molar value.
OUTCOME MEASURE: pIC50

1. Cc1noc(-c2ccccc2C(=O)N[C@H]2CCC[C@@H]2Nc2ccc(C(F)(F)F)cn2)n1 [Example 8] ... 6.96

I: O=C(NC1CCCC1Cc1ccc(C(F)(F)F)cn1)c1ccccc1-n1nccn1 (stereo not shown) [Example 24]
II: Cc1noc(-c2ccccc2C(=O)N[C@H]2CCC[C@@H]2Nc2ncc(C(F)(F)F)cc2F)n1 [Example 140]
III: O=C(N[C@H]1CCC[C@@H]1Nc1cnc(C(F)(F)F)cn1)c1ncccc1C1CC1 [Example 63]
Prompt line: List these items ordered by pIC50, big to small. Show the ranking through the labels, in the order asked for.
Response line: II, III, I
(II: 7.46, III: 6.35, I: 6.12)

I: O=C(N[C@H]1CCC[C@@H]1Nc1cnc(C(F)(F)F)cn1)c1c(F)cccc1C1CC1 [Example 66]
II: O=C(N[C@H]1CCC[C@@H]1Nc1cnc(C(F)(F)F)cn1)c1cc(Cl)ccc1-n1nccn1 [Example 52]
III: O=C(N[C@H]1CCC[C@@H]1Nc1cnc(C(F)(F)F)cn1)c1cc(C(F)(F)F)ccc1-n1ccnn1 [Example 54]
IV: O=C(N[C@H]1CCC[C@@H]1Nc1cnc(C(F)(F)F)cn1)c1ncccc1N1CCCCC1 [Example 51]
Prompt line: List these items ordered by pIC50, big to small. Show the ranking through the labels, in the order asked for.
Response line: II, I, IV, III
(II: 7.16, I: 6.74, IV: 6.52, III: 6.02)

a: O=C(N[C@H]1CCC[C@@H]1Nc1cnc(C(F)(F)F)cn1)c1ccccc1-c1ncccn1 [Example 38]
b: O=C(N[C@H]1CCC[C@@H]1Nc1cnc(C(F)(F)F)cn1)c1cccc(F)c1-n1nccn1 [Example 53]
c: COc1cccc(OC)c1C(=O)N[C@H]1CCC[C@@H]1Nc1ncc(C(F)(F)F)cn1 [Example 2]
d: O=C(N[C@H]1CCC[C@@H]1Nc1cnc(C2CC2)cn1)c1ccccc1-n1nccn1 [Example 112]
Prompt line: List these items ordered by pIC50, big to small. Show the ranking through the labels, in the order asked for.
Response line: a, b, d, c

P: O=C(NC1CC(F)(F)CC1Nc1ncc(C(F)(F)F)cn1)c1ccccc1-n1nccn1 (single isomer, unassigned) [Example 127]
Q: O=C(N[C@H]1CCC[C@@H]1Nc1ccc(C(F)(F)F)cn1)c1ncccc1-n1nccn1 [Example 100]
Prompt line: # min-compare on pIC50 between P and Q The response must carry the label of the picked entry.
Response line: Q
(Q: 6.89, P: 7.17)

1: Cc1ccc(-n2nccn2)c(C(=O)N[C@H]2CCC[C@@H]2Nc2cnc(C(F)(F)F)cn2)c1 [Example 7]
2: Cc1ccc(-n2nccn2)c(C(=O)N[C@H]2CCC[C@@H]2Nc2cnc(Cl)cn2)c1 [Example 9]
Prompt line: Of the two listed items, which has the higher pIC50? First: 1 Second: 2 The response must carry the label of the picked entry.
Response line: 1
